Measured residual activity, listed per entry for reference.
Molecular target: KDR (human)
Assay: Free Choice Kinase Assay Projects, Flashplate
Conditions: compound 10.0 µM; ATP 1 µM
Reply numerically in %, unit not repeated.

Example compounds with recorded residual activity:
- compound: "Fc1ccc(-c2[nH]c(SCc3ccccc3)nc2-c2ccnc(Cl)c2)cc1"
  residual activity / %: 38
- compound: "N#CCSc1nc(-c2ccncc2)c(-c2ccc(F)cc2)[nH]1"
  residual activity / %: 3
- compound: "Fc1ccc(-c2[nH]c(SCC3CCCCC3)nc2-c2ccncc2)cc1"
  residual activity / %: 48
- compound: "Fc1ccc(-c2[nH]c(SCc3ccccc3)nc2-c2ccnc(F)c2)cc1"
  residual activity / %: 32
- compound: "CSc1nc(-c2ccnc(NC(=O)C3CC3)c2)c(-c2ccc(F)cc2)n1C"
  residual activity / %: 2
- compound: "CSc1ccccc1CSc1nc(-c2ccncc2)c(-c2ccc(F)cc2)[nH]1"
  residual activity / %: 51
- compound: "Fc1ccc(-c2[nH]c(SCCCc3ccccc3)nc2-c2ccncc2)cc1"
  residual activity / %: 52
- compound: "On1c(CCc2ccccc2)nc(-c2ccncc2)c1-c1ccc(F)cc1"
  residual activity / %: 4

Could you share which residual activity value was measured for Fc1ccc(-c2[nH]c(/C=C/c3ccccc3)nc2-c2ccncc2)cc1 ?
17

Could you share which residual activity value was measured for Oc1cccc(CSc2nc(-c3ccncc3)c(-c3ccc(F)cc3)[nH]2)c1 ?
7

Could you share which residual activity value was measured for Fc1ccc(-c2[nH]c(CCc3ccccc3)nc2-c2ccncc2)cc1 ?
4

Could you share which residual activity value was measured for COc1ccc(C(=O)Nc2cc(-c3nc(SC)n(C)c3-c3ccc(F)cc3)ccn2)cc1 ?
8

Could you share which residual activity value was measured for On1c(/C=C/c2ccccc2)nc(-c2ccncc2)c1-c1ccc(F)cc1 ?
9

Could you share which residual activity value was measured for CSc1nc(-c2ccnc(NC(C)=O)c2)c(-c2ccc(F)cc2)n1C ?
13

Could you share which residual activity value was measured for CSc1nc(-c2ccnc(NC(=O)C3CCCC3)c2)c(-c2ccc(F)cc2)n1C ?
49

Could you share which residual activity value was measured for CC(Nc1cc(-c2nc(SCc3ccccc3)[nH]c2-c2ccc(F)cc2)ccn1)c1ccccc1 (stereo unspecified) ?
39

Could you share which residual activity value was measured for Oc1ccccc1CSc1nc(-c2ccncc2)c(-c2ccc(F)cc2)[nH]1 ?
42

Could you share which residual activity value was measured for CSc1ccc(CSc2nc(-c3ccncc3)c(-c3ccc(F)cc3)[nH]2)cc1 ?
33

Could you share which residual activity value was measured for Oc1ccc(CSc2nc(-c3ccncc3)c(-c3ccc(F)cc3)[nH]2)cc1 ?
26

Could you share which residual activity value was measured for CSc1nc(-c2ccnc(F)c2)c(-c2ccc(F)cc2)[nH]1 ?
39

Could you share which residual activity value was measured for Fc1ccc(-c2[nH]c(SCc3ccccc3)nc2-c2ccncc2)cc1 ?
58

---

Biological target: UniProt P53350
Sequence (P53350 whole entry, looked up): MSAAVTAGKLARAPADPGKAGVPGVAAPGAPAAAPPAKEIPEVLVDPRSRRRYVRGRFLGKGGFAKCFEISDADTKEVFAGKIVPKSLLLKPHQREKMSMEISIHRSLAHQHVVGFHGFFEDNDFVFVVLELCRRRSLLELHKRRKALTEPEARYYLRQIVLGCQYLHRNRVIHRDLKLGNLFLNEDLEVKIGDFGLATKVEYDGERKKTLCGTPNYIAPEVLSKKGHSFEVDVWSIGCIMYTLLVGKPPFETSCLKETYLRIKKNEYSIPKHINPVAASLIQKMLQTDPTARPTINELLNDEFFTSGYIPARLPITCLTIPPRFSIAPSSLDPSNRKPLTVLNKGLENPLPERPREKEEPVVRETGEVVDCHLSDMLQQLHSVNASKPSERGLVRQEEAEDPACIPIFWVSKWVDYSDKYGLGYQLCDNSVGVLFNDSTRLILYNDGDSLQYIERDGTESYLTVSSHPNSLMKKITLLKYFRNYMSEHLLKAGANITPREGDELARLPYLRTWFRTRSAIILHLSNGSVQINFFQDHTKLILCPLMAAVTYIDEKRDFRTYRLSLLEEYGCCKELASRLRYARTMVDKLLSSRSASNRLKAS
Experiment: Free Choice Kinase Assay Projects, Flashplate
Conditions: compound 10.0 µM; ATP 1 µM
Measured residual activity, listed per entry for reference.
Reply numerically in %, unit not repeated.

- smiles.code: "CSc1nc(-c2ccnc(N(C(=O)C3CC3)C(=O)C3CC3)c2)c(-c2ccc(F)cc2)n1C"
  unit.label: "%"
  residual activity: 118
- smiles.code: "COc1ccc(C(=O)Nc2cc(-c3nc(SC)n(C)c3-c3ccc(F)cc3)ccn2)cc1"
  unit.label: "%"
  residual activity: 81
- smiles.code: "CSc1nc(-c2ccnc(F)c2)c(-c2ccc(F)cc2)[nH]1"
  unit.label: "%"
  residual activity: 85

Could you share which residual activity value was measured for Fc1ccc(-c2[nH]c(SCc3ccccc3)nc2-c2ccncc2)cc1 ?
94

---

Biological target: AKT1 (human) (UniProt P31749)
Sequence (P31749 whole entry, looked up): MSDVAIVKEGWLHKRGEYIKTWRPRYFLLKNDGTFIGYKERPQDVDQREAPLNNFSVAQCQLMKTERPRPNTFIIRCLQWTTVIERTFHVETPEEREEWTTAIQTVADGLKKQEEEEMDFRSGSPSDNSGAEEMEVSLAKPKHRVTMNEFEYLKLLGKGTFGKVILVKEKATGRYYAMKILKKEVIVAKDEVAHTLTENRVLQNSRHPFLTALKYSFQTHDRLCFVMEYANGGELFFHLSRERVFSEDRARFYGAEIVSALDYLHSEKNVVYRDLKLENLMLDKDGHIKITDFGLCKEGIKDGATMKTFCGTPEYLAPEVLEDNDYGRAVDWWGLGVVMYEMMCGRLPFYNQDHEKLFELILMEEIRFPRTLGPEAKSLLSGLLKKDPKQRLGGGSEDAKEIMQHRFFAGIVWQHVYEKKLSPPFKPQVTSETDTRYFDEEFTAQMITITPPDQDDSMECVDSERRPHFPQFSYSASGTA
Assay: Free Choice Kinase Assay Projects, Flashplate
Details: compound 10.0 µM; ATP 3 µM
assay.readout: residual activity (%)
Reply numerically in %, unit not repeated.

Example molecules with recorded residual activity:
- smiles.code: "Oc1ccccc1CSc1nc(-c2ccncc2)c(-c2ccc(F)cc2)[nH]1"
  test.system: "AKT1 (human) (UniProt P31749)"
  quantitative.result: 137
- smiles.code: "Oc1ccc(CSc2nc(-c3ccncc3)c(-c3ccc(F)cc3)[nH]2)cc1"
  test.system: "AKT1 (human) (UniProt P31749)"
  quantitative.result: 130
- smiles.code: "CSc1ccc(CSc2nc(-c3ccncc3)c(-c3ccc(Br)cc3)[nH]2)cc1"
  test.system: "AKT1 (human) (UniProt P31749)"
  quantitative.result: 147
- smiles.code: "Fc1ccc(-c2[nH]c(SCc3ccccc3)nc2-c2ccncc2)cc1"
  test.system: "AKT1 (human) (UniProt P31749)"
  quantitative.result: 110
- smiles.code: "Fc1ccc(-c2[nH]c(SCCc3ccccc3)nc2-c2ccncc2)cc1"
  test.system: "AKT1 (human) (UniProt P31749)"
  quantitative.result: 122

Test system AKT1 (human) (UniProt P31749); read-out residual activity; what value for Fc1ccc(-c2[nH]c(SCc3ccccc3)nc2-c2ccnc(Cl)c2)cc1 ?
75

Test system AKT1 (human) (UniProt P31749); read-out residual activity; what value for Fc1ccc(-c2[nH]c(SCc3ccccc3)nc2-c2ccnc(F)c2)cc1 ?
155

Test system AKT1 (human) (UniProt P31749); read-out residual activity; what value for Fc1ccc(-c2[nH]c(SCC3CCCCC3)nc2-c2ccncc2)cc1 ?
56

Test system AKT1 (human) (UniProt P31749); read-out residual activity; what value for On1c(/C=C/c2ccccc2)nc(-c2ccncc2)c1-c1ccc(F)cc1 ?
76

---

Target: CDK4 CCND1 (human) (UniProt P11802+P24385)
Sequence (P11802 whole entry, looked up): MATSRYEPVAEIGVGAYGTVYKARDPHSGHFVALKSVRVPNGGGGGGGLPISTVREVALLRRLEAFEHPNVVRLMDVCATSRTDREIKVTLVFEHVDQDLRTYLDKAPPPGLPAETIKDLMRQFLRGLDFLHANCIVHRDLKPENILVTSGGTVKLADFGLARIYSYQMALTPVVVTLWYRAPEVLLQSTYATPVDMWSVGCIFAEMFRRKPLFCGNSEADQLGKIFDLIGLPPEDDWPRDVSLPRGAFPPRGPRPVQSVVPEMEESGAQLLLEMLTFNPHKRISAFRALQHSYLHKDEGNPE
Sequence (P24385 whole entry, looked up): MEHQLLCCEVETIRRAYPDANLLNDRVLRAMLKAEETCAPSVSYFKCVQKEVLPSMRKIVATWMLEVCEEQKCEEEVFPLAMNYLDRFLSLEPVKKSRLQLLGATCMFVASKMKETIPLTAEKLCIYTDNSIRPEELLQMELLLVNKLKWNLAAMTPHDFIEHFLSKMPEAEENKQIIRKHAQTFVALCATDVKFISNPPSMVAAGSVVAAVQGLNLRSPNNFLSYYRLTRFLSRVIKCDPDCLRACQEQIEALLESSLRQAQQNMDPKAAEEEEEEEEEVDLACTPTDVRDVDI
Test: Free Choice Kinase Assay Projects, Flashplate
Conditions: compound 10.0 µM; ATP 3 µM
Measured residual activity, listed per entry for reference.
Reply numerically in %, unit not repeated.

- compound: "Fc1ccc(-c2[nH]c(CCc3ccccc3)nc2-c2ccncc2)cc1"
  unit.label: "%"
  residual activity: 99

Could you share which residual activity value was measured for CSc1ccc(CSc2nc(-c3ccncc3)c(-c3ccc(Br)cc3)[nH]2)cc1 ?
87

Could you share which residual activity value was measured for CSc1nc(-c2ccnc(NC(=O)C3CC3)c2)c(-c2ccc(F)cc2)n1C ?
109

Could you share which residual activity value was measured for CSc1nc(-c2ccnc(NC(=O)C3CCCC3)c2)c(-c2ccc(F)cc2)n1C ?
105

Could you share which residual activity value was measured for CSc1nc(-c2ccnc(F)c2)c(-c2ccc(F)cc2)[nH]1 ?
132

Could you share which residual activity value was measured for On1c(CCc2ccccc2)nc(-c2ccncc2)c1-c1ccc(F)cc1 ?
84

Could you share which residual activity value was measured for CC(Nc1cc(-c2nc(SCc3ccccc3)[nH]c2-c2ccc(F)cc2)ccn1)c1ccccc1 (stereo not given) ?
27

Could you share which residual activity value was measured for Fc1ccc(-c2[nH]c(SCCc3ccccc3)nc2-c2ccncc2)cc1 ?
59

Could you share which residual activity value was measured for Oc1ccc(CSc2nc(-c3ccncc3)c(-c3ccc(F)cc3)[nH]2)cc1 ?
103

Could you share which residual activity value was measured for Fc1ccc(-c2[nH]c(/C=C/c3ccccc3)nc2-c2ccncc2)cc1 ?
36

Could you share which residual activity value was measured for Fc1ccc(-c2[nH]c(SCC3CCCCC3)nc2-c2ccncc2)cc1 ?
44

Could you share which residual activity value was measured for Fc1ccc(-c2[nH]c(SCc3ccccc3)nc2-c2ccncc2)cc1 ?
101

Could you share which residual activity value was measured for Oc1cccc(CSc2nc(-c3ccncc3)c(-c3ccc(F)cc3)[nH]2)c1 ?
121

Could you share which residual activity value was measured for Oc1ccccc1CSc1nc(-c2ccncc2)c(-c2ccc(F)cc2)[nH]1 ?
79

Could you share which residual activity value was measured for N#CCSc1nc(-c2ccncc2)c(-c2ccc(F)cc2)[nH]1 ?
102

Could you share which residual activity value was measured for CSc1nc(-c2ccnc(N(C(=O)C3CC3)C(=O)C3CC3)c2)c(-c2ccc(F)cc2)n1C ?
112

Could you share which residual activity value was measured for On1c(/C=C/c2ccccc2)nc(-c2ccncc2)c1-c1ccc(F)cc1 ?
21

Could you share which residual activity value was measured for Fc1ccc(-c2[nH]c(SCc3ccccc3)nc2-c2ccnc(Cl)c2)cc1 ?
48

Could you share which residual activity value was measured for CSc1nc(-c2ccnc(NC(C)=O)c2)c(-c2ccc(F)cc2)n1C ?
102

Could you share which residual activity value was measured for CSc1ccc(CSc2nc(-c3ccncc3)c(-c3ccc(F)cc3)[nH]2)cc1 ?
84

---

Measured residual activity, listed per entry for reference.
Target: PLK1 (human)
Assay: Free Choice Kinase Assay Projects, Flashplate
Settings: compound 10.0 µM; ATP 1 µM
Reply numerically in %, unit not repeated.

Example compounds with recorded residual activity:
- compound: "CSc1ccccc1CSc1nc(-c2ccncc2)c(-c2ccc(F)cc2)[nH]1"
  residual activity / %: 82
- compound: "Fc1ccc(-c2[nH]c(SCc3ccccc3)nc2-c2ccnc(F)c2)cc1"
  residual activity / %: 131
- compound: "CSc1nc(-c2ccnc(NC(=O)C3CCCC3)c2)c(-c2ccc(F)cc2)n1C"
  residual activity / %: 107
- compound: "Fc1ccc(-c2[nH]c(SCCc3ccccc3)nc2-c2ccncc2)cc1"
  residual activity / %: 93
- compound: "Fc1ccc(-c2[nH]c(SCCCc3ccccc3)nc2-c2ccncc2)cc1"
  residual activity / %: 92

Could you share which residual activity value was measured for Oc1cccc(CSc2nc(-c3ccncc3)c(-c3ccc(F)cc3)[nH]2)c1 ?
103

Could you share which residual activity value was measured for CSc1nc(-c2ccnc(NC(C)=O)c2)c(-c2ccc(F)cc2)n1C ?
109

Could you share which residual activity value was measured for Fc1ccc(-c2[nH]c(SCc3ccccc3)nc2-c2ccnc(Cl)c2)cc1 ?
60

Could you share which residual activity value was measured for CSc1ccc(CSc2nc(-c3ccncc3)c(-c3ccc(F)cc3)[nH]2)cc1 ?
115

Could you share which residual activity value was measured for CSc1nc(-c2ccnc(NC(=O)C3CC3)c2)c(-c2ccc(F)cc2)n1C ?
114
